measurement-target: T1, recombinant human CTLA4 fused with human Fc and His tag (human, UniProt P16410 36-162, limits assumed)
T1 construct: Coated in the CD80 ELISA, biotinylated and in solution in the CD86 ELISA; also called biotinylated human CTLA4 fused with human FC and His tag
T1 sequence (looked up): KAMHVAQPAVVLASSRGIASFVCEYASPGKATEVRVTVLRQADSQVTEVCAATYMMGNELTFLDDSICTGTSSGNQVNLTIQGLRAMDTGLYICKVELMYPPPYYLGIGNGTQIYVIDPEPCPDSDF
assay: competition ELISA: plate-bound human CTLA4-Fc-His, biotinylated CD80 as blocked ligand
assay-readout: IC50 (read off the curve)

[
  {
    "binder": "TY21588 (antibody, V domains shown, human IgG1 (hIgG1) from Fab hit B15732) VH: EVQLVESGGGLVQPGGSLRLSCAASGYSISSGYHWDWIRQAPGKGLEWVSGISGYGGSTYYADSVKGRFTISRDNSKNTLYLQLNSLRAEDTAVYYCARHSYYGSGNFDYWGQGTLVTVSS VL: DIQLTQSPSSLSASVGDRVTITCRASESVDFFGKSFLHWYQQKPGKAPKLLIYDASNLETGVPSRFSGSGSGTDFTLTISSLQPEDFATYYCQQSYSWPPTFGQGTKVEIKR",
    "test-result": "~1 nM"
  },
  {
    "binder": "TY21687 (antibody, V domains shown, human IgG1 (hIgG1) from Fab hit B15700) VH: EVQLVESGGGLVQPGGSLRLSCAASGFTFSGYAIHWVRQAPGKGLEWIGIISPSGGGTKYAQKFQGRVTISRDNSKNTLYLQLNSLRAEDTAVYYCARHPFAYWGQGTLVTVSS VL: DIQLTQSPSSLSASVGDRVTITCRASQSVDFYGISFLDWYQQKPGKAPKLLIYDASNRATGIPSRFSGSGSGTDFTLTISSLQPEDFATYYCQQYVSSPPEYTFGQGTKVEIK",
    "test-result": "~20 nM"
  },
  {
    "binder": "TY21587 (antibody, V domains shown, human IgG1 (hIgG1) from Fab hit B15722) VH: EVQLVESGGGLVQPGGSLRLSCAASGFTFSDYGIHWVRQAPGKGLEWIGEIYHSGSTYYSPSLKSRVTISRDNSKNTLYLQLNSLRAEDTAVYYCARDVAPGSSGYYDGFDFWGQGTLVTVSS VL: DIQLTQSPSSLSASVGDRVTITCRASQGIGSSLAWYQQKPGKAPKLLIYDASNRATGIPSRFSGSGSGTDFTLTISSLQPEDFATYYCQQYDQWPPWTFGQGTKVEIK",
    "test-result": "~30 nM"
  }
]

Measured IC50 (read off the curve), TY21691 (antibody, V domains shown, human IgG1 (hIgG1) from Fab hit B15736) VH: EVQLVESGGGLVQPGGSLRLSCAASGFTFSDYAIHWVRQAPGKGLEWIGIISPSGGSTKYAQKFQGRVTISRDNSKNTLYLQLNSLRAEDTAVYYCARLGYGYFDVWGQGTLVTVSS VL: DIQLTQSPSSLSASVGDRVTITCRASQSVDFYGISFLHWYQQKPGKAPKLLIYDASSLESGVPSRFSGSGSGTDFTLTISSLQPEDFATYYCVQALQLPLTFGQGTKVEIK : ~20 nM

Measured IC50 (read off the curve), TY21591 (antibody, V domains shown, human IgG1 (hIgG1) from Fab hit B15756) VH: EVQLVESGGGLVQPGGSLRLSCAASGFSLSTGGVAVSWIRQAPGKGLEWIGEIYHSGSTYYSPSLKSRVTISRDNSKNTLYLQLNSLRAEDTAVYYCARRIATATYFDYWGQGTLVTVSS VL: DIQLTQSPSSLSASVGDRVTITCRASQTVFSRYLAWYQQKPGKAPKLLIYDASNRATGIPSRFSGSGSGTDFTLTISSLQPEDFATYYCQQSYYWPPWTFGQGTKVEIK : ~10 nM

Measured IC50 (read off the curve), TY21585 (antibody, V domains shown, human IgG1 (hIgG1) from Fab hit B15709) VH: EVQLVESGGGLVQPGGSLRLSCAASGFTFSDYAIHWVRQAPGKGLEWIGIISPSSGSTNYAQKFQGRVTISRDNSKNTLYLQLNSLRAEDTAVYYCARDIHSGSSGYYYGFDVWGQGTLVTVSS VL: DIQLTQSPSSLSASVGDRVTITCRASESVDFFGISFLAWYQQKPGKAPKLLIYDASNRATGIPSRFSGSGSGTDFTLTISSLQPEDFATYYCQHYTSSPPVYTFGQGTKVEIK : ~10 nM
